- study.system: δ opioid receptor (Rattus norvegicus)
pKi: −log10 of the molar value.
outcome.measure: pKi

[[record]]
smiles_repr = "COc1ccc2c3c1O[C@@]1(Cc4ccccc4)C(=O)C=C[C@@]4(OC)[C@@H](C2)N(C)CC[C@]314"
recorded_result = "< 5.00"


* * *

- study.system: μ opioid receptor (Rattus norvegicus)
outcome.measure: Ki (nM)

[[record]]
compound = "COc1ccc2c3c1O[C@@]1(Cc4ccccc4)C(=O)C=C[C@@]4(OC)[C@@H](C2)N(C)CC[C@]314 [Compound 3]"
outcome_measure = "Ki"
recorded_result = 34.1


* * *

- study.system: κ opioid receptor (Cavia porcellus)
pKi: −log10 of the molar value.
outcome.measure: pKi

[[record]]
compound = "COc1ccc2c3c1O[C@@]1(Cc4ccccc4)C(=O)C=C[C@@]4(OC)[C@@H](C2)N(C)CC[C@]314 [Compound 3]"
outcome_measure = "pKi"
recorded_result = 5.72

